target: GLP-1R (Homo sapiens); construct: host or cells: CRE-bla CHO-K1; assay: GLP-1 PAM EC20 assay: dosing compound in the presence of fixed GLP-1 (9-36), direct cAMP response; type: cell-based; conditions: compound dose response in presence of EC20 GLP-1 (9-36); total cAMP from standard curve

compound	EC20 GLP-1 (9-36) PAM max cAMP / µM
CCCCCCCOc1ccc(C(=O)Oc2ccc(C[C@H](NC(=O)c3ccc(NC(=O)Cc4ccc(OC)cc4)cc3)C(=O)O)cc2)cc1	0.098
CCCCCCCOc1ccc(C(=O)Oc2ccc(C[C@H](NC(=O)c3ccc(NC(=O)COCc4ccccc4)cc3)C(=O)O)cc2)cc1	0.16
CCCCCCCOc1ccc(C(=O)Oc2ccc(C[C@H](NC(=O)c3ccc(OC)cc3)C(=O)O)cc2)cc1	0.072
CCCCCCCOc1ccc(C(=O)Oc2ccc(CC(NC(=O)c3ccc(NC(=O)Cc4ccc(OC)cc4)cc3)C(=O)O)cc2OC)cc1 (stereo not drawn)	0.174
CCCCCCCOc1ccc(C(=O)Oc2ccc(CC(NC(=O)c3ccc(NC(=O)COCc4ccccc4)cc3)C(=O)O)cc2OC)cc1 (stereo not drawn)	0.204
CCCCCCCOc1ccc(C(=O)Oc2ccc([C@H](NC(=O)c3ccc(NC(=O)Cc4ccc(OC)cc4)cc3)C(=O)O)cc2)cc1	0.216
CCCCCCCOc1ccc(C(=O)Oc2ccc(C[C@H](NC(=O)c3ccc(C(C)(C)C)cc3)C(=O)O)cc2)cc1	0.237
CCCCCCCOc1ccc(C(=O)Oc2ccc(CC(NC(=O)c3ccc(NC(=O)C4CCCC4)cc3)C(=O)O)cc2OC)cc1 (stereo not drawn)	0.027
CCCCCCCOc1ccc(C(=O)Oc2ccc(CC(NC(=O)c3ccc(OC)cc3)C(=O)O)cc2OC)cc1 (stereo not drawn)	0.189

---

target: UniProt:P43220; experiment: GLP-1 PAM EC20 assay: dosing compound in the presence of fixed GLP-1 (9-36), direct cAMP response; conditions: compound dose response in presence of EC20 GLP-1 (9-36); GLP-1R CRE-bla CHO-K1 cells
pEC50: −log10 of the molar value.
value kind: pEC50

molecule	test target	reported relation	val
CCCCCCCOc1ccc(C(=O)Oc2ccc(CC(NC(=O)c3ccc(NC(=O)C4CCCC4)cc3)C(=O)O)cc2OC)cc1 (stereo not drawn) [Compound 273]	UniProt:P43220	<	5.00
CCCCCCCOc1ccc(C(=O)Oc2ccc(C[C@H](NC(=O)c3ccc(NC(=O)COCc4ccccc4)cc3)C(=O)O)cc2)cc1 [Compound 179]	UniProt:P43220	=	5.32
CCCCCCCOc1ccc(C(=O)Oc2ccc(C[C@H](NC(=O)c3ccc(NC(=O)Cc4ccc(OC)cc4)cc3)C(=O)O)cc2)cc1 [Compound 178]	UniProt:P43220	=	5.20
CCCCCCCOc1ccc(C(=O)Oc2ccc(C[C@H](NC(=O)c3ccc(OC)cc3)C(=O)O)cc2)cc1 [Compound 63]	UniProt:P43220	<	5.00
CCCCCCCOc1ccc(C(=O)Oc2ccc(CC(NC(=O)c3ccc(NC(=O)COCc4ccccc4)cc3)C(=O)O)cc2OC)cc1 (stereo not drawn) [Compound 103]	UniProt:P43220	=	5.26
CCCCCCCOc1ccc(C(=O)Oc2ccc(CC(NC(=O)c3ccc(NC(=O)Cc4ccc(OC)cc4)cc3)C(=O)O)cc2OC)cc1 (stereo not drawn) [Compound 120]	UniProt:P43220	=	5.39

---

Readings of EC50 for the listed compounds
biological target: GLP-1R (Homo sapiens, UniProt P43220); experiment: GLP-1 PAM EC20 assay: dosing compound in the presence of fixed GLP-1 (9-36), direct cAMP response; conditions: compound dose response in presence of EC20 GLP-1 (9-36); GLP-1R CRE-bla CHO-K1 cells
Sequence (P43220 24-463): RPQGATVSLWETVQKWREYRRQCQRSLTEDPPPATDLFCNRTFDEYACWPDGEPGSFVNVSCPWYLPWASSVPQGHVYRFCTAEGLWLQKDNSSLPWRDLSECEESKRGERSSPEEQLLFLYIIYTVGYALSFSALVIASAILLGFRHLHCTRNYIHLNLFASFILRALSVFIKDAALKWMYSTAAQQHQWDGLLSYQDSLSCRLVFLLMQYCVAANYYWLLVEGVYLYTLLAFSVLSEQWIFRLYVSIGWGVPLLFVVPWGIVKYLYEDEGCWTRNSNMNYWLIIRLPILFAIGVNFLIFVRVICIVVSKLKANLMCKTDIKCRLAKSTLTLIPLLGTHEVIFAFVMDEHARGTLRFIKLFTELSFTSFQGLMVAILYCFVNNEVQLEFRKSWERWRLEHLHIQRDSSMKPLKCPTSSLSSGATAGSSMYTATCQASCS
Sequence (P01275 100-127 partner limits assumed): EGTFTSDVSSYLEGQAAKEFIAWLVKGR

compound	test target	reported relation	EC50 / µM
CCCCCCCOc1ccc(C(=O)Oc2ccc([C@H](NC(=O)c3ccc(NC(=O)Cc4ccc(OC)cc4)cc3)C(=O)O)cc2)cc1 [Compound 263]	GLP-1R (Homo sapiens, UniProt P43220)	=	2.78
CCCCCCCOc1ccc(C(=O)Oc2ccc(C[C@H](NC(=O)c3ccc(C(C)(C)C)cc3)C(=O)O)cc2)cc1 [Compound 57]	GLP-1R (Homo sapiens, UniProt P43220)	=	3.67
CCCCCCCOc1ccc(C(=O)Oc2ccc(CC(NC(=O)c3ccc(OC)cc3)C(=O)O)cc2OC)cc1 (stereo not drawn) [Compound 2]	GLP-1R (Homo sapiens, UniProt P43220)	>	20
